Tested on: Tov112D
testProtocol: Primary qHTS to identify gynecologic anti-cancer compounds using libraries of approved drugs and bioactive compounds (AID 1345084); also: nearly all actives have a fitted effect of over 55% in size
experimentalSetup: Gynecologic cancer cell panel viability, ATPlite luminescence, 48 h; series mostly up to 57.5 µM
Inconclusive results are not listed. Calls of active or inactive are those of the source. Calls follow the shape of the dose curve; as a rule, active = well fitted cell-killing curve with a large enough effect; inconclusive = small, poorly fitted or top-dose-only effect, or effect the other way; inactive = flat fitted curve, though single readings scatter.
Outcome codes: YES (active), NO (inactive)

compound=OC[C@H]1O[C@@H](O[C@H]2[C@H](OCCc3ccccc3)O[C@H](CO)[C@@H](O)[C@@H]2O)[C@H](O)[C@@H](O)[C@@H]1O targetofassay=Tov112D category=NO
compound="CC(C)c1ccc2c(c1)C(=O)CC1[C@@](C)(C(=O)O)CCC[C@]21C (some centres not stated)" targetofassay=Tov112D category=NO
compound="CC(=O)C12OC(C)(C)OC1CC1C3CCC4=CC(=O)C=CC4(C)C3(F)C(O)CC12C (configuration not stated)" targetofassay=Tov112D category=NO
compound=COc1ccc2[nH]c3c(-c4cccc5ccccc45)nccc3c2c1 targetofassay=Tov112D category=YES
compound="COC(=O)C1=C2Nc3ccccc3C23CCN2CCCC(C(C)O)(C1)C23 (configuration not stated)" targetofassay=Tov112D category=NO
compound="COc1ccc(C(O)C(C)OC2OC(CO)C(O)C(O)C2O)cc1 (configuration not stated)" targetofassay=Tov112D category=NO
compound=Cc1c(NC(=O)c2cc(C(N)=O)nc3cc(F)ccc23)c(C(F)(F)F)nn1Cc1ccc(C#N)cc1 targetofassay=Tov112D category=NO
compound=O=C(Nc1ccn[nH]1)c1c(F)cccc1F targetofassay=Tov112D category=NO
compound=CC(C)c1cc2c(c(O)c1O)[C@@]13CCCC(C)(C)[C@@H]1[C@H](OC3=O)C2=O targetofassay=Tov112D category=NO
compound=COc1ccc(CN2C(=O)C(=O)c3cc(S(=O)(=O)N4CCC[C@H]4COc4cccnc4)ccc32)cc1 targetofassay=Tov112D category=NO
compound="CN1c2ccccc2C(=O)N2CCC3c4ccccc4NC3C21 (configuration not stated)" targetofassay=Tov112D category=YES
compound=CCNCc1nc2c(N)nc3ccccc3c2n1CC(C)(C)O targetofassay=Tov112D category=NO

---

Test system: Tov-21-G
testProtocol: Primary qHTS to identify gynecologic anti-cancer compounds using libraries of approved drugs and bioactive compounds (AID 1345084); also: nearly all actives have a fitted effect of over 55% in size
experimentalSetup: Gynecologic cancer cell panel viability, ATPlite luminescence, 48 h; series mostly up to 57.5 µM
Inconclusive results are not listed. Calls of active or inactive are those of the source. Calls follow the shape of the dose curve; as a rule, active = well fitted cell-killing curve with a large enough effect; inconclusive = small, poorly fitted or top-dose-only effect, or effect the other way; inactive = flat fitted curve, though single readings scatter.
parameter: outcome

compound="CC1COC2(OC3CC4C5CC(O[C@@H]6O[C@H](C)[C@@H](O[C@@H]7O[C@@H](C)[C@H](O)[C@@H](O)[C@H]7O)[C@H](O)[C@H]6O)C6CC(O)CCC6(C)C5CCC4(C)C3C2C)C(O)C1 (stereo partly drawn)" targetofassay=Tov-21-G parameter=outcome reportedmeasurement=inactive
compound=COc1c2ccoc2cc2oc(CO[C@@H]3O[C@H](CO)[C@@H](O)[C@H](O)[C@H]3O)cc(=O)c12 targetofassay=Tov-21-G parameter=outcome reportedmeasurement=inactive
compound=CC(=O)O[C@H]1C[C@@]2(C)[C@@H](CC[C@H]3[C@@]4(C)C=CC(=O)[C@@H](C)[C@@H]4[C@H](O)C(=O)[C@@]32C)/C1=C(/CCC=C(C)C)C(=O)O targetofassay=Tov-21-G parameter=outcome reportedmeasurement=inactive
